- Test system: SF-295
- EXPERIMENT NOTES: NCI tumour cell line growth inhibition, 48 h
Active and inactive are the calls of the source. Rule as the data show it: active = GI50 up to about 1.1 µM and inactive = higher.
Use one of these outcomes when replying: active, inactive

Name the outcome recorded for CC(=O)OC1CCn2nnc(CO)c21 (stereo unspecified) in the assay. inactive

Name the outcome recorded for CO[C@@H]1[C@H](O)CC[C@]2(CO2)[C@H]1[C@@]1(C)O[C@@H]1CC=C(C)C in the assay. inactive

Name the outcome recorded for COC(=O)CCC(NC(=O)OC(C)(C)C)C(=O)NC(Cc1ccc(NC(=O)CCCC(C)=O)cc1)C(=O)NC(CCC(=O)OC)C(=O)OC (stereo unspecified) in the assay. inactive

Name the outcome recorded for CC(=O)NC1C(OCc2ccccc2)OC(CO)C(O)C1OC(C)C(=O)NC(C)C(=O)NC(CCC(=O)NCCCCNc1c2ccccc2nc2cccc([N+](=O)[O-])c12)C(N)=O (stereo unspecified) in the assay. active

Name the outcome recorded for CC1=C(SCCO)C(=O)c2ccccc2C1=O in the assay. inactive

Name the outcome recorded for Cc1c(C)c(C)c(-n2[nH]c(=O)n(C)c2=O)c(C)c1C in the assay. inactive

Name the outcome recorded for COc1ccc(C2=CC(c3ccc4c(c3)OCO4)c3c(c4ccccc4oc3=O)O2)cc1OC (stereo unspecified) in the assay. active

Name the outcome recorded for O=[N+]([O-])c1ccc(-c2noc(-c3ccc(Cl)cc3)c2C2=NCCN2)cc1 in the assay. inactive

* * *

- Test system: HCT-15
In plain terms, low GI50, meaning strictly below 30 µM, gives Criterion met, and everything else gives Criterion not met.

Below are worked cases with known answers.
Cc1cc2sc(C)[n+](CCCOS(=O)(=O)[O-])c2cc1C = Criterion not met
O=C(O)C1CCCN1Cc1cc2ccccc2c2ccccc12 (stereo not drawn) = Criterion not met
COc1cc(NCc2ccc3nc(-c4ccccc4)c(N)nc3c2)cc(OC)c1OC = Criterion met
CC(=O)c1ccc2c(c1)oc(=O)n2CCN1CCCCC1 = Criterion not met
CCN1CN(c2ccccc2)C2(CCN(CCCSc3ccc(F)cc3)CC2)C1=O = Criterion met
COc1ccc(Nc2nc(N)c(C(=O)c3ccccc3)s2)cc1 = Criterion met
CCCc1cc2c(cc1O)CC[C@@H]1[C@@H]2CC[C@]2(C)[C@@H](O)CC[C@@H]12 = Criterion met
CCOC(=O)c1sc2c(C(=O)OCC)n3ccccc3c2c1N = Criterion not met

Item [N-]=[N+]=NCN1C(=O)C2C3C=CC(C2C1=O)C1C2C(=O)N(CN=[N+]=[N-])C(=O)C2C31 (stereo not drawn) : GI50 beneath 30 µM, strictly? Criterion not met

Item c1cncc(CSc2ncnc3[nH]cnc23)c1 : GI50 beneath 30 µM, strictly? Criterion not met

Item CC12CCC(=O)N1c1cnccc1N2 (stereo not drawn) : GI50 beneath 30 µM, strictly? Criterion not met

Item Cc1c(C)c(C)c(-n2[nH]c(=O)n(C)c2=O)c(C)c1C : GI50 beneath 30 µM, strictly? Criterion not met

Item Cc1ccccc1S(=O)(=O)OC1NS(=O)(=O)c2ccccc21 (stereo not drawn) : GI50 beneath 30 µM, strictly? Criterion not met

Item COc1cc2c(c(OC)c1OC)-c1ccc(OC)c(=O)cc1[C@@H](NC(=O)c1ccccc1)CC2 : GI50 beneath 30 µM, strictly? Criterion met

Item COC(=O)/C=C(\S/C(=N\n1cc(C(=O)OC)c(C(=O)OC)c1-c1ccc(C)cc1)c1ccc(C)cc1)C(=O)OC : GI50 beneath 30 µM, strictly? Criterion met

Item COC1=CC2=NCCc3n[nH]c(c32)C1=O : GI50 beneath 30 µM, strictly? Criterion not met

Item CC1=CC(=O)C(=O)C2=C1OC1(C2)C(C)CCC2C3(C)CCC(O)C(C)(C)C3CCC21C (stereo not drawn) : GI50 beneath 30 µM, strictly? Criterion met

Item FC(F)(F)P1C2C=CC(CC2)C1(F)F (stereo not drawn) : GI50 beneath 30 µM, strictly? Criterion not met

* * *

- Test system: SF-539
- EXPERIMENT NOTES: NCI tumour cell line growth inhibition, 48 h
Activity calls are given as the source filed them. No stated cut-off is given here; in the data, active = GI50 up to about 1.1 µM and inactive = higher.
Each entry below carries its reported GI50.

Recorded GI50, per entry:
CCOC(=O)[C@@]12C(C)=CC(=O)O[C@]1(C)C1C(=O)NC(=O)C12 (stereo partly drawn) = > 100 µM (inactive)
COc1ccc2c3c1OC1C(OC)(OC)CC4(C=C2)CN(C)CCC314 (stereo not drawn) = > 100 µM (inactive)
Cc1cc2sc(C)[n+](CCCOS(=O)(=O)[O-])c2cc1C = > 100 µM (inactive)
CCCCCCCCCC1CC(=O)OC2=C1C(=O)CCC2 (stereo not drawn) = > 100 µM (inactive)

Tell me the measured GI50 of Clc1ccc(Cc2nc3ccccc3s2)c(Cl)c1 , please. 3.65 µM (inactive)

Tell me the measured GI50 of COC(=O)C(C(=O)C(=O)Nc1ccc([N+](=O)[O-])cc1)c1nc2cc(C)c(C)cc2nc1O (stereo not drawn) , please. > 100 µM (inactive)

Tell me the measured GI50 of O=C1c2ccccc2C(=O)N1C/C=N/NS(=O)(=O)c1ccc(Br)cc1 , please. > 100 µM (inactive)

Tell me the measured GI50 of NC1=C(Cl)C(=O)c2c(O)ccc(O)c2C1=O , please. 2.84 µM (inactive)

* * *

- Test system: HT-29
- EXPERIMENT NOTES: NCI tumour cell line growth inhibition, 48 h
Activity calls are given as the source filed them. Cut-off read from the data, not from the text of the source: active = GI50 up to about 1.1 µM and inactive = higher.
QUANTITY KIND: GI50

Cc1cc(N(CCC#N)CCC#N)ccc1/N=N/c1ccc(C(=O)O)cc1 = > 100 µM (inactive)
CCOC(=O)Cn1c(=O)[nH]c(=O)c2[nH]cnc21 = > 100 µM (inactive)
O=[N+]([O-])c1ccc2nc3n(c2c1)C(c1c(F)cccc1F)SC3 (configuration not stated) = > 100 µM (inactive)
COc1cc(C2S/C(=C/c3ccccc3)C(=O)N2c2cc(Cl)c(Cl)cc2Cl)cc(OC)c1OC (configuration not stated) = 46.2 µM (inactive)
O=Cc1ccc2c(c1I)OCO2 = > 100 µM (inactive)

HT-29 / GI50 / Nc1ccc2c(c1)S(=O)(=O)c1cc(N)ccc1-2 : value? > 100 µM (inactive)

HT-29 / GI50 / COc1cc(Br)cc2cc(-c3cn4c(n3)sc3ccccc34)c(=O)oc12 : value? 29.5 µM (inactive)

HT-29 / GI50 / NC1=C(Cl)C(=O)c2c(O)ccc(O)c2C1=O : value? 2.54 µM (inactive)

HT-29 / GI50 / CCOC(=O)C(C)(C)/C=C\C(Cl)=C(Cl)Cl : value? > 100 µM (inactive)

HT-29 / GI50 / N=C(N)NC(=N)Nc1ccc(S(=O)(=O)O)cc1 : value? > 100 µM (inactive)

HT-29 / GI50 / O=C(CC(O)(C(F)(F)Cl)C(F)(F)Cl)CC(O)(C(F)(F)Cl)C(F)(F)Cl : value? 1.65 µM (inactive)

HT-29 / GI50 / CC1=CC(=O)C(=O)C2=C1OC1(C2)C(C)CCC2C3(C)CCC(O)C(C)(C)C3CCC21C (configuration not stated) : value? 20.6 µM (inactive)

* * *

- Tested on: SK-MEL-5
- EXPERIMENT NOTES: NCI tumour cell line growth inhibition, 48 h
The source made the active and inactive calls. Cut-off read from the data, not from the text of the source: active = GI50 up to about 1.1 µM and inactive = higher.
Use one of these outcomes when replying: True (active), False (inactive)

Below are worked cases with known answers.
COC(=O)c1ccc(NCc2cc(O)c3ccccc3c2O)cc1 = False
CC(C)(Cl)C(Cl)CC/C(CBr)=C(\Cl)CCl (stereo not given) = False
Cc1ccc(S(=O)(=O)NC(=O)NNc2ccc(F)cc2)cc1 = False
CCOC(=O)[C@]12C(=C(c3ccccc3)O[C@H]3C=CCC[C@H]31)C(=O)C(=O)N2c1ccccc1 = False
Cc1cccc(C)c1NC(=S)NC=C(C(N)=O)C(N)=O = False
COC(=O)[C@@]12OC[C@]34C([C@@H](O)C1O)[C@@]1(C)CC(=O)C(O)=C(C)C1C[C@H]3OC(=O)[C@H](OC(=O)CC(C)C(F)(F)F)[C@H]42 (stereo not given in full) = True

Name the outcome recorded for Cc1c2c(n(C)c1C)C(=O)C1C(C2=O)C2(C)c3ccccc3C1(C)c1ccccc12 (stereo not given) in the assay. False

Name the outcome recorded for N=C(N)NCCNC(=N)N in the assay. False

Name the outcome recorded for CC(=O)c1ccc2c(c1)oc(=O)n2CCN1CCCCC1 in the assay. False

Name the outcome recorded for Cc1c2cccc-2c2cc(O)c3ccccc3c2n1-c1ccc(N(C)C)cc1 in the assay. False

* * *

- Test system: HOP-92
- EXPERIMENT NOTES: NCI tumour cell line growth inhibition, 48 h
Calls of active or inactive are those of the source. No stated cut-off is given here; in the data, active = GI50 up to about 1.1 µM and inactive = higher.
QUANTITY KIND: GI50

Tell me the measured GI50 of O=C(CC(=O)Nc1ccccc1O)Nc1ccccc1O , please. > 100 µM (inactive)

Tell me the measured GI50 of Nc1nc(S)nc(C(=O)Nc2ccc(Cl)c(Cl)c2)c1-c1ccc(Cl)cc1 , please. 93.1 µM (inactive)

Tell me the measured GI50 of CCCCOCN/C(N)=N/C#N , please. > 100 µM (inactive)

Tell me the measured GI50 of CCOC(=O)n1c(=O)nc2c3c(ncn21)Oc1c(c(-c2ccccc2)nn1-c1ccccc1)C3c1ccc(Cl)cc1 (stereo unspecified) , please. 1.36 µM (inactive)

Tell me the measured GI50 of O=C1/C(=N\O)C2CCC1C2 (stereo unspecified) , please. > 100 µM (inactive)

Tell me the measured GI50 of O=C1c2ccccc2C(=O)N1C/C=N/NS(=O)(=O)c1ccc(Br)cc1 , please. 11 µM (inactive)

Tell me the measured GI50 of CC(NC(=O)OC(C)(C)C)C(=O)NC(Cc1ccccc1)C(=O)NCC(=O)Oc1c(Cl)c(Cl)c(Cl)c(Cl)c1Cl (stereo unspecified) , please. 12.5 µM (inactive)

Tell me the measured GI50 of CC(C(=O)ON1C(=O)CCC1=O)c1ccc(C(=O)c2ccccc2)s1 (stereo unspecified) , please. > 100 µM (inactive)

Tell me the measured GI50 of CCOc1ccc(/C=N\N2C(=O)c3ccccc3C2=O)cc1 , please. > 100 µM (inactive)

Tell me the measured GI50 of O=C1C(Br)=C(c2ccccc2)C(c2ccccc2)=C1c1ccccc1 , please. 1.69 µM (inactive)

Tell me the measured GI50 of Cc1nn(-c2ccccc2)c2nc3c(c(C)nn3-c3ccccc3)c(-c3ccc(C(F)(F)F)cc3)c12 , please. > 100 µM (inactive)
